TARGET OR TEST SYSTEM: furin, P09958;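 further: purified furin at 1:10 enzyme:substrate in 50 mM HEPES pH 7.5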
Sequence (P09958 whole entry): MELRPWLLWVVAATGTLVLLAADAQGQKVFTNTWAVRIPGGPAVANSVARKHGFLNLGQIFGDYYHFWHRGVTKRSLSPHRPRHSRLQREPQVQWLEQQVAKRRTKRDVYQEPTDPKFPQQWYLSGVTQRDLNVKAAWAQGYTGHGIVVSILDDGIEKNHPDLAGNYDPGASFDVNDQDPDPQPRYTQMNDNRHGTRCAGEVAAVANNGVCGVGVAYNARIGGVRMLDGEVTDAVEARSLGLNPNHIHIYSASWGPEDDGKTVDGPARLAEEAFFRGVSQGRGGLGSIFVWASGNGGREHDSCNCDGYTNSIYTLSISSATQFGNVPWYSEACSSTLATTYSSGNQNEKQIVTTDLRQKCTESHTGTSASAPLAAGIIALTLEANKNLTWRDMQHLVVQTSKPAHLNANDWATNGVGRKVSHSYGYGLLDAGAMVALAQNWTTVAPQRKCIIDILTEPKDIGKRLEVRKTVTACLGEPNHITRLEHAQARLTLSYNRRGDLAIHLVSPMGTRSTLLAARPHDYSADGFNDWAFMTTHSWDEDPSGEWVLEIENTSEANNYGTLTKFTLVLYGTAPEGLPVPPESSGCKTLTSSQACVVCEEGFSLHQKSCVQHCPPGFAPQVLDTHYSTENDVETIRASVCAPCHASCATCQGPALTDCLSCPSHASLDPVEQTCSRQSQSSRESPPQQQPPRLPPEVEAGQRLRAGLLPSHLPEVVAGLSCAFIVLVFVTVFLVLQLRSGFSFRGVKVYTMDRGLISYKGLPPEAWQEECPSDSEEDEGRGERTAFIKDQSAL
PROCEDURE TEXT: furin cleavage Z-score vs untreated control; higher = more cleavage, active = 3.5 or more, inactive = 1 or less, 8 variable residues between constant flanks
CONDITION SET: 7.5 min
Some of the results follow. The hit rate among all sequences tested is not known here.
Category | rule: reported furin cleavage Z-score within range, see Low: < -0.4; Medium: ≥ -0.4 and < 5; High: ≥ 5

POLYMER SEQUENCE	CLASS ASSIGNMENT
CARRRKSASDAGNASASA [FS-2074]	Medium
CARHLRSKVTAGNASASA [FS-1955]	Medium
CAEVQTSTWVAGNASASA [HC2202]	Medium
CAACQRQKKVAGNASASA [HC1393]	Medium
CAAKSRQRRQAGNASASA [FS-1583]	High
CASFDPLVAEAGNASASA [HC1288]	Low
CAFIPVENLEAGNASASA [HC758]	Low
CAHIFRKRRPAGNASASA [FS-439]	Medium
CAREHRSGEPAGNASASA [FS-2004]	Low
CAQPHRAQRSAGNASASA [FS-1153]	High
CAQALDCEIYAGNASASA [HC1591]	Low
CATHMRQMRSAGNASASA [FS-304]	High
CARGKREAGLAGNASASA [FS-1950]	High
CAAKSRQMRSAGNASASA [FS-321]	High

Values from the supplement of paper PMC3545927
